Measured GI50 values are reported for all entries that follow.
system: HCT-15
All answers are understood in µM, so give the number only.

# example entries with known answers
N#Cc1c(-c2ccccc2)[nH]c2ccccc2c1=O ... 62.8
ClC(Cl)(Cl)C1=N[C@H]2[C@H](Br)[C@@H]3O[C@@H](c4ccccc4)[C@H](c4ccccc4)O[C@@H]3[C@H]2O1 ... 27.2
CC1=NNC(=O)C1C(CC(=O)c1c[nH]c2ccccc12)C(=O)O (configuration not stated) ... 92.9
CCOc1ccccc1/N=N/c1ccc2oc(=O)c(C(=O)Nc3cccc(C)c3)cc2c1 ... 25.4
O=C(c1ccccc1)c1sc2c(=O)c(C(=O)c3ccccc3)c(C(=O)c3ccccc3)sc2c(=O)c1C(=O)c1ccccc1 ... 35

Query: Please give the documented GI50 of Cc1oc2ccccc2c(=O)c1Cn1nnc2ccccc21
Reply: 96.2

Query: Please give the documented GI50 of O=C(Nc1cccc(C(F)(F)F)c1)C(=O)C1NC(=S)NC1=O (configuration not stated)
Reply: 35.3

Query: Please give the documented GI50 of CCOC(=O)c1nc2ccc(C(F)(F)F)cc2nc1NCc1ccc(OC)c(OC)c1
Reply: 69

Query: Please give the documented GI50 of O=C(NNC(=O)/C(=C/c1cccc([N+](=O)[O-])c1)NC(=O)c1ccccc1)Nc1ccc(Cl)cc1
Reply: 12.2

Query: Please give the documented GI50 of O=C1N(c2ccccc2)N=C2c3ccncc3C3=NN(c4ccccc4)C(=O)C123 (configuration not stated)
Reply: 13.2

Query: Please give the documented GI50 of C=Cc1nc2c(Cl)ncnc2n1Cc1ccccc1
Reply: 2.51

Query: Please give the documented GI50 of Cn1c(=O)sc2cc(C(=S)N3CCN(c4ccccc4)CC3)ccc21
Reply: 39.4

* * *

system: SF-295; test: NCI tumour cell line growth inhibition, 48 h
The source made the active and inactive calls. Cut-off read from the data, not from the text of the source: active = GI50 up to about 1.1 µM and inactive = higher.
Property name: GI50

# example entries with known answers
O=c1oc2ccc3ccccc3c2cc1-c1nc2ccc([N+](=O)[O-])cc2o1 ... 13.5 µM (inactive)
Fc1ccccc1C1CC(c2ccc3ccccc3c2)=Nc2ccccc2S1 (stereo unspecified) ... > 100 µM (inactive)
C=Cc1nc2c(Cl)ncnc2n1Cc1ccccc1 ... 15.6 µM (inactive)
Cn1c(=O)sc2cc(C(=S)N3CCN(c4ccccc4)CC3)ccc21 ... 19.9 µM (inactive)
Cc1cc(O)nc(/N=C(\N)Nc2ccc(Cl)cc2)n1 ... > 100 µM (inactive)
CN1C[C@H]2[C@@H](C1=O)[C@H](c1ccc([N+](=O)[O-])cc1)ON2C ... > 100 µM (inactive)

Would you kindly look at the next entry?
Query: Provide measured GI50 on SF-295 for OC1(c2ccc(Cl)cc2)c2ccccc2C2=NCc3ccccc3CN21 (stereo unspecified) please.
Reply: 15.3 µM (inactive)

* * *

system: MDA-N; assay: NCI tumour cell line growth inhibition, 48 h
Counter-ions that a name gives are not always drawn. Calls of active or inactive are those of the source. No stated cut-off is given here; in the data, active = GI50 up to about 1.1 µM and inactive = higher.
Lab note: assign the record to one of active, inactive

Consider the following illustrative entries.
CCOc1cc2c(cc1O)C(=O)C[C@@H]1[C@@H]2CC[C@]2(C)[C@@H](O)CC[C@@H]12 ... active
O=C(O)c1ccc(SSc2ccc(C(=O)O)cn2)nc1 ... inactive
Cn1c(N=[N+]=[N-])cc(=O)n(C)c1=O ... inactive
Cc1c(Cl)nc(Nc2nc3ccccc3[nH]2)nc1Cl ... inactive
CCCCc1ccc(Nc2nc3c(ncn3C3CC(O)C(CN=[N+]=[N-])O3)c(=O)[nH]2)cc1 (stereo not drawn) ... inactive

Query: Field: outcome | Entry: O=C(c1ccccc1)c1sc2c(=O)c(C(=O)c3ccccc3)c(C(=O)c3ccccc3)sc2c(=O)c1C(=O)c1ccccc1
Reply: inactive

Query: Field: outcome | Entry: O=S(=O)(O)c1cc(O)c2c(/N=C\c3ccccc3O)cc(S(=O)(=O)O)cc2c1
Reply: inactive

Query: Field: outcome | Entry: O=C(O)c1cccc(SSc2cccc(C(=O)O)c2)c1
Reply: inactive

Query: Field: outcome | Entry: CCN(CC)CCNc1ccc(CO)c2sc3ccccc3c(=O)c12 [HYCANTHONE MESYLATE]
Reply: inactive

Query: Field: outcome | Entry: N#C[BH2-][n+]1ccc(C(=O)NNCC(F)(F)F)cc1
Reply: inactive

Query: Field: outcome | Entry: COc1ccc(/C(C)=N/NC(=O)c2ccncc2)cc1OC
Reply: inactive

Query: Field: outcome | Entry: O=C1CC2OCC=C3CN4CCC56c7ccccc7N1C5C2C3CC46O (stereo not drawn)
Reply: inactive

Query: Field: outcome | Entry: Nc1cccc2nnccc12
Reply: inactive
